Target: human brain-derived dopamine D4 receptor (Homo sapiens, UniProt P21917)
Construct: expressed in transfected cells; host or cells: CHO (CHO-K1) or HEK293 cells
Sequence (P21917 1-419): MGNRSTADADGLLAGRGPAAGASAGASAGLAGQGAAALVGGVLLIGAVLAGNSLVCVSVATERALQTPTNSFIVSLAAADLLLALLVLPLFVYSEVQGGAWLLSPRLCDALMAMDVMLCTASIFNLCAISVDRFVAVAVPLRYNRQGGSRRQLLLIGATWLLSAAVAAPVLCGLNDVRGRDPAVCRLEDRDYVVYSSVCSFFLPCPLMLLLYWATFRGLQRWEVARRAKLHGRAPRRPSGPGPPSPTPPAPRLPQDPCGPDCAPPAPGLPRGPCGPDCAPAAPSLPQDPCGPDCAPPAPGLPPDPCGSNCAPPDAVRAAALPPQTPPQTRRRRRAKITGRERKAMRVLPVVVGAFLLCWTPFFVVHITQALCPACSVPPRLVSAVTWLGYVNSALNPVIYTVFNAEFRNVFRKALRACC
Assay: Agonistic activity in G protein dependent pathway of dopamine D4 receptor (aequorin intracellular calcium luminescence, FDSS)
Format: cell-based
Settings: read-out: Maximal activity on D4 receptor (%)
measured-parameter: Emax (%)

| compound | units | Emax |
| --- | --- | --- |
| Cc1cccnc1-c1cc2n(n1)CCN(Cc1cccc(C#N)c1)C2 [Example 62] | % | 89 |
| Cc1cccnc1-c1cc2n(n1)CCN(Cc1cc3c(cn1)OCC3)C2 [Example 185] | % | 51 |
| Cc1cccnc1-c1cc2n(n1)CCN(Cc1ccc3c(n1)CCC3)C2 [Example 113] | % | 104 |
| Cc1ccc(CN2CCn3nc(-c4ncccc4C)cc3C2)nc1C [Example 131] | % | 66 |
| c1ccc(CN2CCCn3nc(-c4ccccn4)cc3C2)cc1 [Example 8] | % | 37 |

a = c1ccc(CN2CCn3nc(-c4ccccn4)cc3C2)cc1 [Example 1]
b = Cc1ccncc1CN1CCn2nc(-c3ncccc3C)cc2C1 [Example 111]
// query API: POST /compare with a and b ; response names the item with higher Emax. # reply format: chosen label
// result a
(a: 71%, b: 22%)

====

Target: human brain-derived dopamine D4 receptor (Homo sapiens, UniProt P21917)
Assay: Agonistic activity in G protein dependent pathway of dopamine D4 receptor (aequorin intracellular calcium luminescence, FDSS)
Settings: concentration required to achieve a 50% response of Emax; CHO-K1 or HEK293 cells transfected with D4 receptor
measured-parameter: EC50 (nM)

These recorded examples may help you get a feel for the data.
| molecule | units | test-value |
| --- | --- | --- |
| Cc1ccc(CN2CCn3nc(-c4ncccc4C)c(C)c3C2)nc1 [Example 114] | nM | 64 |
| Cc1ncc(CN2CCn3nc(-c4ncccc4C)cc3C2)cn1 [Example 170] | nM | 152 |
| Cc1cccnc1-c1cc2n(n1)CCN(Cc1n[nH]c3c(C)cccc13)C2 [Example 104] | nM | 18 |
| Cc1cccnc1-c1cc2n(n1)CCN(Cc1ccc([N+](=O)[O-])cc1)C2 [Example 65] | nM | 20 |
| Cc1ncc(CN2CCn3nc(-c4ccccn4)c(F)c3C2)c(N)n1 [Example 141] | nM | 87 |
| Cc1cccnc1-c1cc2n(n1)CCN(Cc1ccc3c(c1)NC(=O)CC3)C2 [Example 41] | nM | 46 |

P = Cc1cnc(CN2CCn3nc(-c4ncccc4F)cc3C2)cn1 [Example 159]
Q = Cc1ccc(CN2CCn3nc(-c4ncccc4F)cc3C2)nc1 [Example 109]
// query Hi! Which is lower in terms of EC50, the first one P or the second one Q ? Give the label of your selection.
// result Q
(Q: 36 nM, P: 92 nM)

P = Fc1cccnc1-c1cc2n(n1)CCN(Cc1ccc(C(F)(F)F)cc1)C2 [Example 68]
Q = Cc1ncc(CN2CCn3nc(-c4ccccn4)cc3C2)c(N)n1 [Example 22]
// query Recorded EC50 values differ for P and Q ; which one is higher? Selection: enter the item's label.
// result Q

P = Cc1cccnc1-c1cc2n(n1)CCN(Cc1ncn3ccccc13)C2 [Example 96]
Q = Cc1cccc(CN2CCn3nc(-c4ncccc4C)cc3C2)c1 [Example 54]
// query Look at P and Q . Which one has the lower recorded EC50 number? When you have decided, please share the label of that item.
// result Q
(Q: 7 nM, P: 37 nM)

1 = Cc1ccc(CN2CCn3nc(-c4ncccc4C)c(C)c3C2)cc1 [Example 72]
2 = Cc1cccnc1-c1cc2n(n1)CCN(Cc1ccc(CF)nc1)C2 [Example 122]
// query // max by EC50 over [ 1 , 2 ] The response must carry the label of the picked entry.
// result 2

I = Cc1cc(CN2CCn3nc(-c4ncccc4C)cc3C2)cnc1Cl [Example 187]
II = Cc1cccnc1-c1cc2n(n1)CCN(Cc1ncc(Br)cc1F)C2 [Example 183]
III = Cc1ccc(CN2CCn3nc(-c4ccccn4)c(C)c3C2)nc1 [Example 110]
// query Sort low-to-high on EC50, please. // format: requested-order list of labels
// result III, I, II
(III: 18 nM, I: 32 nM, II: 108 nM)

P = Cc1cccnc1-c1cc2n(n1)CCN(Cc1cc(OC(F)(F)F)ccc1F)C2 [Example 64]
Q = c1ccc(-c2cc3n(n2)CCN(Cc2ccc4occc4c2)C3)nc1 [Example 39]
// query Recorded EC50 values differ for P and Q ; which one is higher? State the label of the item chosen.
// result P
(P: 108 nM, Q: 35 nM)

====

Target: human brain-derived dopamine D4 receptor (Homo sapiens)
Construct: expressed in transfected cells; host or cells: CHO (CHO-K1) or HEK293 cells
Sequence (P21917 1-419): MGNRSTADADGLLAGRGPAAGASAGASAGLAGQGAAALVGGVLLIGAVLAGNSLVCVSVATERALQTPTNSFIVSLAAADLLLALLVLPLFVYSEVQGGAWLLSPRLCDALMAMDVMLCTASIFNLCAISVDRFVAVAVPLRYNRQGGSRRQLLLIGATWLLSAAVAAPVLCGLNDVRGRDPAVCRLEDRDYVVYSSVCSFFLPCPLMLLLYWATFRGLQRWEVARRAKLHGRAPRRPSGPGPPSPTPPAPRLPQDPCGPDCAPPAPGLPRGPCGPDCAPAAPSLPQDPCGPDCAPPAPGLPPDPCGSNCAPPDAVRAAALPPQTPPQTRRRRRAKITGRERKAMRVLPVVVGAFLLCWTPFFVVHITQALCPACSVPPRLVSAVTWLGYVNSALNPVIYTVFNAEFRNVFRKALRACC
Assay: Agonistic activity in G protein dependent pathway of dopamine D4 receptor (aequorin intracellular calcium luminescence, FDSS)
Format: cell-based
Conditions: read-out: Maximal activity on D4 receptor (%)
measured-parameter: Emax (%)

The examples below pair each entry with its known result.
| compound | Emax (%) |
| --- | --- |
| Cc1c(-c2ccccn2)nn2c1CN(Cc1ccc(C(F)(F)F)cn1)CC2 [Example 108] | 66 |
| Cc1ncc(CN2CCn3nc(-c4ncccc4F)cc3C2)c(C)n1 [Example 191] | 76 |
| Cc1cccnc1-c1cc2n(n1)CCN(Cc1cnc(C(C)C)nc1)C2 [Example 203] | 54 |
| O=C1NCc2cc(CN3CCn4nc(-c5ccccn5)cc4C3)ccc21 [Example 51] | 32 |
| Cc1cccnc1-c1cc2n(n1)CCN(Cc1ccc3c(n1)CCCC3)C2 [Example 112] | 66 |
| Cc1cccnc1-c1cc2n(n1)CCN(Cc1cccc(F)c1)C2 [Example 61] | 57 |

a = c1ccc(-c2cc3n(n2)CCN(Cc2ccc4occc4c2)C3)nc1 [Example 39]
b = Cc1ncc(CN2CCn3nc(-c4ncccc4F)cc3C2)cn1 [Example 171]
// query Which is greater in Emax, the first item a or the second item b ? Give the chosen item's label as your response.
// result a

====

Target: human brain-derived dopamine D4 receptor (Homo sapiens, UniProt P21917)
Construct: expressed in transfected cells; host or cells: CHO (CHO-K1) or HEK293 cells
Assay: Agonistic activity in G protein dependent pathway of dopamine D4 receptor (aequorin intracellular calcium luminescence, FDSS)
Type: cell-based
Conditions: read-out: Maximal activity on D4 receptor (%)
measured-parameter: Emax (%)

Some compounds with recorded Emax:
| sample-smiles | units | Emax |
| --- | --- | --- |
| Cc1cnc(CN2CCn3nc(-c4ncccc4C)cc3C2)c(F)c1 | % | 51 |
| Cc1cccnc1-c1cc2n(n1)CCN(Cc1ccc3c(c1)NC(=O)CC3)C2 | % | 54 |
| Nc1ncc(CN2CCn3nc(-c4ncccc4F)cc3C2)cn1 | % | 69 |

P = Cc1cccnc1-c1nn2c(c1C)CN(Cc1ccc(C(F)(F)F)cn1)CC2
Q = FC(F)(F)c1cccnc1-c1cc2n(n1)CCN(Cc1ccccc1)C2
// query Between these two entries, P and Q , state which has the higher Emax. Identify your selection by its label.
// result Q
